experimentSummary: activity coefficient (dimensionless); of the first substance listed, at infinite dilution; xn = mol fraction of the nth substance listed
experimentalParameters: 348.15 K; 101 kPa; Liquid; Chromatography; x1 = 0
observationType: activity coefficient

Consider the reported activity coefficient for these molecules:
{"molecule": "C1CCOC1 [tetrahydrofuran] + CCCC[N+]1(C)CCOCC1.N#C[C-](C#N)C#N", "observed": 1.18}
{"molecule": "CCCC(C)=O [pentan-2-one] + CCCC[N+]1(C)CCOCC1.N#C[C-](C#N)C#N", "observed": 1.5}
{"molecule": "CCCCCCCC [octane] + CCCC[N+]1(C)CCOCC1.N#C[C-](C#N)C#N", "observed": 93.4}
{"molecule": "C=C(C)c1ccccc1 [(1-methylethenyl)benzene] + CCCC[N+]1(C)CCOCC1.N#C[C-](C#N)C#N", "observed": 3.07}
{"molecule": "C1CCCCCCC1 [cyclooctane] + CCCC[N+]1(C)CCOCC1.N#C[C-](C#N)C#N", "observed": 29.1}
{"molecule": "CCCCCCC [heptane] + CCCC[N+]1(C)CCOCC1.N#C[C-](C#N)C#N", "observed": 63.3}
{"molecule": "CC(C)CO [2-methyl-1-propanol] + CCCC[N+]1(C)CCOCC1.N#C[C-](C#N)C#N", "observed": 1.74}
{"molecule": "C=CCCCCCCCC [1-decene] + CCCC[N+]1(C)CCOCC1.N#C[C-](C#N)C#N", "observed": 94.5}

Reported activity coefficient for C1CCCCCC1 [cycloheptane] + CCCC[N+]1(C)CCOCC1.N#C[C-](C#N)C#N : what is it?
22.5

---

experimentSummary: activity coefficient (dimensionless); of the first substance listed, at infinite dilution; xn = mol fraction of the nth substance listed
experimentalParameters: 368.15 K; 101 kPa; Liquid; Chromatography; x1 = 0
Listing of entries alongside the reported activity coefficient.
Lab note: jot down the number only; don't add units.

For orientation, consider the following solved cases.
{"molecule": "CCCC(=O)OC [methyl butanoate] + CCCC[N+]1(C)CCOCC1.N#C[C-](C#N)C#N", "activity coefficient": 2.56}
{"molecule": "CCCCO [butan-1-ol] + CCCC[N+]1(C)CCOCC1.N#C[C-](C#N)C#N", "activity coefficient": 1.61}
{"molecule": "C1CCCC1 [cyclopentane] + CCCC[N+]1(C)CCOCC1.N#C[C-](C#N)C#N", "activity coefficient": 10.9}
{"molecule": "COC(C)=O [methyl ethanoate] + CCCC[N+]1(C)CCOCC1.N#C[C-](C#N)C#N", "activity coefficient": 1.3}

State the recorded activity coefficient for this entry: C=C(C)c1ccccc1 [(1-methylethenyl)benzene] + CCCC[N+]1(C)CCOCC1.N#C[C-](C#N)C#N
3.22

I am curious: what activity coefficient value has been reported for C1COCCO1 [1,4-dioxane] + CCCC[N+]1(C)CCOCC1.N#C[C-](C#N)C#N ?
0.853

Reported activity coefficient for CCC(=O)OC [methyl propanoate] + CCCC[N+]1(C)CCOCC1.N#C[C-](C#N)C#N : what is it?
1.79

Param item = C=CCCCC [hex-1-ene] + CCCC[N+]1(C)CCOCC1.N#C[C-](C#N)C#N ; retrieve measured activity coefficient.
17.4

---

experimentSummary: activity coefficient (dimensionless); of the first substance listed, at infinite dilution; xn = mol fraction of the nth substance listed
experimentalParameters: 328.15 K; 101 kPa; Liquid; Chromatography; x1 = 0
observationType: activity coefficient

A selection of reference data follows.
{"compound": "C=Cc1ccccc1 [styrene] + CCCC[N+]1(C)CCOCC1.N#C[C-](C#N)C#N", "observationType": "activity coefficient", "observed": 1.86}
{"compound": "CCCC=O [butanal] + CCCC[N+]1(C)CCOCC1.N#C[C-](C#N)C#N", "observationType": "activity coefficient", "observed": 1.24}
{"compound": "C=CCCCCC [1-heptene] + CCCC[N+]1(C)CCOCC1.N#C[C-](C#N)C#N", "observationType": "activity coefficient", "observed": 32}
{"compound": "c1ccsc1 [thiophene] + CCCC[N+]1(C)CCOCC1.N#C[C-](C#N)C#N", "observationType": "activity coefficient", "observed": 1.04}
{"compound": "C#CCCCCC [1-heptyne] + CCCC[N+]1(C)CCOCC1.N#C[C-](C#N)C#N", "observationType": "activity coefficient", "observed": 8.26}
{"compound": "CCC(C)O (centres undefined) [butan-2-ol] + CCCC[N+]1(C)CCOCC1.N#C[C-](C#N)C#N", "observationType": "activity coefficient", "observed": 1.93}

What value of activity coefficient has been recorded for this entry: CCOCC [diethyl ether] + CCCC[N+]1(C)CCOCC1.N#C[C-](C#N)C#N
5.33

What does the record list as activity coefficient for CCO [ethanol] + CCCC[N+]1(C)CCOCC1.N#C[C-](C#N)C#N ?
1.19

I have this compound here, CCCCCCC [heptane] + CCCC[N+]1(C)CCOCC1.N#C[C-](C#N)C#N , and I need its recorded activity coefficient.
76.8
